Each recorded value in this set is attributed to ChEMBL document CHEMBL5143716.

- experimentalProtocol: Kinetic solubility of compound in PBS at pH 6.8 incubated for 24 hrs by UPLC/MS analysis
- Assay type: physicochemical
- runConditions: read-out: Kinetic_solubility
Exercise: state measured solubility kinetic at 24 h for each of the compounds provided.

-- ask I have this compound here, CC(=O)N[C@H]1Cc2cccc(c2)Oc2cccc(c2)C[C@@H](C(=O)NCC(F)(F)F)NC(=O)[C@H](CCc2ccccc2)NC1=O , and I need its recorded solubility kinetic at 24 h.
-- reply < 1.4 µg/mL

-- ask I have this compound here, O=C(NC1CCCC1)[C@@H]1CCCCOc2cccc(c2)C[C@H](N2CCCC2=O)C(=O)N[C@@H](CCN2CCC(F)(F)CC2)C(=O)N1 , and I need its recorded solubility kinetic at 24 h.
-- reply > 130 µg/mL

-- ask I have this compound here, Cc1ccc(CNC(=O)[C@@H]2Cc3cccc(c3)Oc3cccc(c3)C[C@H](N)C(=O)N[C@@H](CCc3ccccc3)C(=O)N2)cc1 , and I need its recorded solubility kinetic at 24 h.
-- reply < 1.6 µg/mL

-- ask I have this compound here, CN(C)[C@H]1Cc2cccc(c2)OCCCC[C@@H](C(=O)NC2CCCC2)NC(=O)[C@H](CCN2CCOCC2)NC1=O , and I need its recorded solubility kinetic at 24 h.
-- reply > 130 µg/mL

-- ask I have this compound here, O=C(NC1CCCC1)[C@@H]1CCCCOc2cccc(c2)C[C@H](N2CCC2)C(=O)N[C@@H](CCN2CCOCC2)C(=O)N1 , and I need its recorded solubility kinetic at 24 h.
-- reply > 140 µg/mL

-- ask I have this compound here, Cn1cc(CNC(=O)[C@@H]2CCCCOc3cccc(c3)C[C@H](N3CCCC3=O)C(=O)N[C@@H](CCc3ccccc3)C(=O)N2)cn1 , and I need its recorded solubility kinetic at 24 h.
-- reply > 120 µg/mL

-- ask I have this compound here, O=C(NC1CCCC1)[C@@H]1CCCCOc2cccc(c2)C[C@H](N2CCCC2=O)C(=O)N[C@@H](CCN2CCOCC2)C(=O)N1 , and I need its recorded solubility kinetic at 24 h.
-- reply > 130 µg/mL

-- ask I have this compound here, CN[C@H]1Cc2cccc(c2)OCCCC[C@@H](C(=O)NC2CCCC2)NC(=O)[C@H](CCN2CCOCC2)NC1=O , and I need its recorded solubility kinetic at 24 h.
-- reply > 140 µg/mL

-- ask I have this compound here, O=C(NCC(F)(F)F)[C@@H]1COCCOc2cccc(c2)C[C@H](N2CCCC2=O)C(=O)N[C@@H](CCc2ccccc2)C(=O)N1 , and I need its recorded solubility kinetic at 24 h.
-- reply < 130 µg/mL

* * *

Exercise: state measured Papp A→B at 1 h, 10 µM for each of the compounds provided.
- Test system: human MDR1 (P-gp)
- experimentalProtocol: Apparent permeability across apical to basolateral side in pig LLC-PK1 cells expressing human MDR1 at 10 uM measured after 60 mins by LC/MS/MS analysis
- Type: ADME, cell-based, Sus scrofa

-- ask I have this compound here, CN[C@H]1Cc2cccc(c2)OCCCC[C@@H](C(=O)NC2CCCC2)NC(=O)[C@H](CCN2CCOCC2)NC1=O , and I need its recorded Papp A→B at 1 h, 10 µM.
-- reply > 0.2 ×10⁻⁶ cm/s

-- ask I have this compound here, O=C(NC1CCCC1)[C@@H]1CCCCOc2cccc(c2)C[C@H](N2CCCC2=O)C(=O)N[C@@H](CCN2CCC(F)(F)CC2)C(=O)N1 , and I need its recorded Papp A→B at 1 h, 10 µM.
-- reply 4 ×10⁻⁶ cm/s

-- ask I have this compound here, O=C(NC1CCCC1)[C@@H]1CCCCOc2cccc(c2)CC2(COC2)C(=O)N[C@@H](CCN2CCOCC2)C(=O)N1 , and I need its recorded Papp A→B at 1 h, 10 µM.
-- reply > 2.8 ×10⁻⁶ cm/s

-- ask I have this compound here, O=C(NC1CCCC1)[C@@H]1CCCCOc2cccc(c2)C[C@H](N2CCC2)C(=O)N[C@@H](CCN2CCOCC2)C(=O)N1 , and I need its recorded Papp A→B at 1 h, 10 µM.
-- reply > 0.2 ×10⁻⁶ cm/s

-- ask I have this compound here, Cc1ccc(CNC(=O)[C@@H]2Cc3cccc(c3)Oc3cccc(c3)C[C@H](N)C(=O)N[C@@H](CCc3ccccc3)C(=O)N2)cc1 , and I need its recorded Papp A→B at 1 h, 10 µM.
-- reply > 0.29 ×10⁻⁶ cm/s

-- ask I have this compound here, O=C(NC1CCCC1)[C@@H]1CCCCOc2cccc(c2)C[C@H](N2CCCC2=O)C(=O)N[C@@H](CCN2CCOCC2)C(=O)N1 , and I need its recorded Papp A→B at 1 h, 10 µM.
-- reply > 0.2 ×10⁻⁶ cm/s

-- ask I have this compound here, O=C1N[C@H](c2nnc(C(F)(F)F)[nH]2)CCCCOc2cccc(c2)C[C@H](N2CCCC2=O)C(=O)N[C@H]1CCc1ccccc1 , and I need its recorded Papp A→B at 1 h, 10 µM.
-- reply > 2.1 ×10⁻⁶ cm/s

-- ask I have this compound here, Cn1cc(CNC(=O)[C@@H]2CCCCOc3cccc(c3)C[C@H](N3CCCC3=O)C(=O)N[C@@H](CCc3ccccc3)C(=O)N2)cn1 , and I need its recorded Papp A→B at 1 h, 10 µM.
-- reply > 0.6 ×10⁻⁶ cm/s
